Cited source for all entries: patent US20250145711A1

Please respond with reported % Retained 55° C. for every item in the list.
molecular target: T1, TRCW5 antigen (CD3δε-Fc-Avi) (biotinylated (site not stated)); assay: ELISA after heat
T1 construct: also called recombinant CD3
T1 sequence (chain, as listed by the source mutant limits assumed): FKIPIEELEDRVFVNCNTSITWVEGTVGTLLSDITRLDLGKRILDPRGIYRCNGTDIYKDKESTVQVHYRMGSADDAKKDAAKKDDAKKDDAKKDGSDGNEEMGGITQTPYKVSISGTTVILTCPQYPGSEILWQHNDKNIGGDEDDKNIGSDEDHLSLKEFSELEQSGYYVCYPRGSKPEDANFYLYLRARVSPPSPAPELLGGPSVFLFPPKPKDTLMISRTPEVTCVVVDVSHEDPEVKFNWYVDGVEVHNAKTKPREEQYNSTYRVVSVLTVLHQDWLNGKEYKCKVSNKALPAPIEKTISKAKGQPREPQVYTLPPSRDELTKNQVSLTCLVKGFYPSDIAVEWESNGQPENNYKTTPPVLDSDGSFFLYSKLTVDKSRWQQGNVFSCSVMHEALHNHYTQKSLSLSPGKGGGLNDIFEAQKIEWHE
Numbers only, in %.

{"columns": ["Binder", "Unit Text", "% Retained 55° C."],
 "data": [
  ["CD3B2028 (scFv) scFv: QVQLVQSGAEVKKPGSSVKVSCKASGYTFTRSTMHWVKQAPGQGLEWIGYINPSSAYTNYNQKFQGRVTLTADKSTSTAYMELSSLRSEDTAVYYCASPQVHYDYNGFPYWGQGTLVTVSSGGSEGKSSGSGSESKSTGGSEIVLTQSPATLSASPGERVTLSCSASSSVSYMNWYQQKPGTAPRRLIYDSSKLASGVPARFSGSGSGRDYTLTISSLEPEDFAVYYCQQWSRNPPTFGGGTKVEIK", "%", 104]
]}

Let us examine a further case.
If you can, please state the reported % Retained 55° C. value of CD3B2035 (scFv) scFv: QVQLVQSGAEVKKPGSSVKVSCKASGYTFTRSTMHWVKQAPGQGLEWMGYINPSSAYTNYNQKFQGRVTLTADKSTSTAYMELSSLRSEDTAVYYCASPQVHYDYNGFPYWGQGTLVTVSSGGSEGKSSGSGSESKSTGGSEIVLTQSPATLSASPGERVTLSCSASSSVSYMNWYQQKPGQAPRRWIYDSSKLASGVPARFSGSGSGRDYTLTISSLEPEDFAVYYCQQWSRNPPTFGGGTKVEIK .
110
